Molecular target: EBOV GP ectodomain residues 1-636 (GPec) (Zaire ebolavirus, strain  …, UniProt Q05320)
MEASURED_METRIC: binding result

5.6.c2682 (antibody, V domains shown) VH: QVQLVESGGGVVQPGRSLRLSCAASGFTFSNYAMHWVRQAPGKGLEWVAVTSDDKDNRYYADSVKGRFIISRDNSKNTLYLQMNSLRAEDTAVYHCAKDFEVFSSIFNGAYDSWGQGTLVIVSS VL: EVVMTQSPATLSVSPGERATLSCRASQSVGFNLAWYQQKPGQAPRLLIYDASTRATGIPARFSGSGSGTEFTLTISSLQSGDFAVYYCQQYNNWPPYTFGQGTKLEIK | binds
5.6.c2609 (antibody, V domains shown) VH: QVQLVESGGGVVQPGRSLRLSCAASGIAFSNYAMHWVRQAPGKGLEWVALISSDARDQYYADSVKGRFTISRDNSKSTLYLEMNSLTSEDTAIYYCASDTSSHYSSLLYNWFDSWGQGSLVTVSS VL: DIQMTQSPSSLSASVGDRVTITCRAIQSISTFLNWYQHKPGKAPKVLIYGASNLQSGVPSRFSGSGSGTDFTLTISSLQPEDFATYYCQQSYNTPFTFGPGTKVDIK | binds
9.1.c1617 (antibody, V domains shown) VH: QVQFVESGGGLVKPGGSLRLSCTTSGFTFSDYYMSWIRQAPGKGLEWVSYISRSGNIIYYPDSVKGRFTISRDNAKNSLYLQMNSLRVEDTAVYYCAGGVQRGYNYYYYGMYVWGQGITVTVSS VL: DIVMTQSPLSLPVTPGEPASISCRSSQSLLHSNGYNYLDWYLQRPGQSPQLLIYLGSNRASGVPDRFSGSGSGTDFTLKISRVEAEDFGFYYCMQALQTPYTFGQGTKLEIR | binds
